Assay: NCI Yeast Anticancer Drug Screen. Data for the mec2-1 strain (AID 157)
Details: S. cerevisiae mec2-1 strain, at 50.0 µM (retest, dose inferred, filed as 5.0), hits give high values
This is part of a sample that, as a whole, favours compounds with a hit. Of some 79,000 tested, about 15% had one in any assay.

Compound	growth inhibition / %
Cc1ccc(S(=O)(=O)CC(=O)CC(=O)C(=O)Nc2cc(C)ccc2C)cc1	-8
CC(Br)C(=O)c1ccc(OCc2ccccc2)cc1 (stereo not given)	99
C=C1CC2(C[C@@H](c3ccccc3)O[C@@H](c3ccccc3)C2)OC1=O (stereo not given in full)	98
S=C(N/N=C/c1ccccn1)N1CCCCC1	99
CNC(=O)OCCC(OC(=O)NC)C1CCC2C3CC=C4CC(OC(=O)NC)CCC4(C)C3CCC12C (stereo not given)	94
CCCCCCc1cc(C(=O)N/N=C\c2cccc([N+](=O)[O-])c2)c2ccccc2n1	-2
CC(NC(=O)OCc1ccccc1)C(=O)NC(Cc1ccccc1)C(=O)OCc1ccccc1 (stereo not given)	2
O=C(c1ccccc1)c1ccc(O)cc1O	24
Cc1ccc(CN2CC(=O)N3Cc4ccccc4CN3C(=O)C2)cc1	-15
CC(=O)NC1=C(Sc2ccc(C)cc2)C(=O)c2ccccc2C1=O	99
O=C(O)C1(Cc2ccc3c(c2)CCC3)Cc2ccccc2C1=O (stereo not given)	-6
CC(C(=O)N1C(=O)N(C(=O)C(C)C(O)c2ccccc2)C(c2ccccc2)C1c1ccccc1)C(O)c1ccccc1 (stereo not given)	92
O=c1[nH]c(=O)c2cc([N+](=O)[O-])cc([N+](=O)[O-])c2[nH]1	57
CCN(CC)CCOc1c(Cl)c(Cl)c(Cl)c(Cl)c1Cl	77
CCCCCCCCCCCC(=O)OCCCCC	1
CC(C)(C)Oc1ccc(CC(NC(=O)OCC2c3ccccc3-c3ccccc32)C(=O)O)cc1 (stereo not given)	97
O=C1c2ccccc2C(=O)N1C(=NCc1ccccc1)c1ccccc1	68
O=[N+]([O-])c1ccc2c(c1)/C(=C/c1ccccc1O)c1ccccc1-2	93
CCN1C(Cl)=NS(=O)(=O)c2ccccc21	43
O=C1C=CC(=NN=C(c2ccccc2)c2ccccc2)C=C1	-21
CCOC(=O)C(=NNc1ccccc1)C(=O)OCC	2
[Cu+2].[NH-]c1ccccc1O.[NH-]c1ccccc1[OH2+]	80
Oc1ccccc1N=CC1CCCCC1	-24
CCCCCCCCCCCCCCCBr	12
COc1ccc(C(=O)C(c2ccc(OC)cc2)C2(O)C(=O)Nc3c(Cl)cc(Cl)cc32)cc1 (stereo not given)	-20
O=C1C=C(c2ccccc2)O/C1=C\C(=O)c1ccc(Cl)cc1	43
Clc1ccc2nc(CCSCCc3nc4ccc(Cl)cc4[nH]3)[nH]c2c1	98
CCOC(=O)c1c(Br)c(-c2ccc(Br)cc2)c(Br)n1C	-29
O=C1C(Cl)=C(Nc2ccc(S(=O)(=O)O)cc2)C(=O)c2ccccc21	100
C1CCC(CC2CCC(NC3=NCCO3)CC2)CC1 (stereo not given)	96
CC(C)=CCC(CC=C(C)C)c1ccncc1 (tested in a mixture with another compound)	99
CCCCCCCCC1OC1CCCCCCCC(=O)OCC1CO1 (stereo not given)	-10
CSc1ccc(NC(=S)SC(C)C)cc1Cl	99
Cc1ccc(OCC2CO2)c(Br)c1 (stereo not given)	19
C=C1C(=O)C23C(O)C1CC[C@H]2C12CCCC(C)(COC(C)=O)[C@H]1[C@H](O)[C@]3(O)OC2 (stereo not given in full)	97
CCC(=O)Oc1c(Br)c(Br)c(Br)c(Br)c1Br	62
CC1(C)NNC(=S)NN1	8
O=C(O)/C=C/c1ccc(Cl)c(Cl)c1	55
CC1CCC2(OC1)OC1CC3C4CCC5CC(OC6OC(COC7OC(CO)C(O)C(O)C7O)C(OC7OC(C)C(O)C(O)C7O)C(O)C6OC6OC(CO)C(O)C(O)C6O)CCC5(C)C4CCC3(C)C1C2C (stereo not given)	100
N#Cc1c(-c2ccc(Cl)cc2)c(-c2ccc(Cl)cc2)nn(CCOC(=O)CN)c1=O	96
CN(C)c1ccc2c(c1)N(C)c1ccccc1C2(Cl)c1ccccc1 (stereo not given)	100
COc1cc(C2=NCCO2)cc(OC)c1OC	-52
C[N+]1(C)CCN(CCCN2c3ccccc3Sc3ccccc32)CC1	22
O=[N+]([O-])c1ccccc1C1CN=NN1c1ccccc1 (stereo not given)	25
CC(/C=C/c1ccc(Cl)c(Cl)c1)=N\NC(N)=S	73

// data source = PubChem BioAssay (NCI)
